Target: Human TRPC6 (Homo sapiens, UniProt Q9Y210)
Construct: expressed in transfected cells
Sequence (Q9Y210 whole entry): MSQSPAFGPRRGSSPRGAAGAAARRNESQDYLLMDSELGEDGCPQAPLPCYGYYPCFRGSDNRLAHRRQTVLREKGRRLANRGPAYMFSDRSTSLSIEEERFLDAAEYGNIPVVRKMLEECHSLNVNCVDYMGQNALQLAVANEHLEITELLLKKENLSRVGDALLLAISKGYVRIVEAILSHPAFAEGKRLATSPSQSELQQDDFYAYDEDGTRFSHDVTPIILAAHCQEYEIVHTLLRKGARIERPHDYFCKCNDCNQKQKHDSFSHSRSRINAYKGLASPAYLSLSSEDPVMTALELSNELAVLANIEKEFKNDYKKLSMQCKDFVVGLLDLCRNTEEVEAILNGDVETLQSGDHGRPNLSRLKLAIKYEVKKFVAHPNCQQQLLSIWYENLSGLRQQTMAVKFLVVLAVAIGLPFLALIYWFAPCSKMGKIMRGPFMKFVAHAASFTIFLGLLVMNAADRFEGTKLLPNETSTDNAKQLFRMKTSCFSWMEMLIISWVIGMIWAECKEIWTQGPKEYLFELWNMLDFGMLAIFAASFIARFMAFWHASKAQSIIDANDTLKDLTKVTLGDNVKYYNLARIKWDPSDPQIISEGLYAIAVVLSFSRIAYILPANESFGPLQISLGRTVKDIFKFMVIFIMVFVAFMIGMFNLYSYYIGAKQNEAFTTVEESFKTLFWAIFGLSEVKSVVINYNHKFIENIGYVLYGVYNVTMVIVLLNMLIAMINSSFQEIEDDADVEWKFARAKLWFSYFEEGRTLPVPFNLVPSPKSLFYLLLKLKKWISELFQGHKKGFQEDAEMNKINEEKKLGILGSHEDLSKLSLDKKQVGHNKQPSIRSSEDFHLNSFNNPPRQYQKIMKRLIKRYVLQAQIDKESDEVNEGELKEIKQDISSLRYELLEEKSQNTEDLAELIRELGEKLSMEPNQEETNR
Test: Evaluation of TRPC6 channel inhibitory activity (1), FLIPR Calcium 5 Assay Kit, OAG stimulation (Compound Nos. 1-1293)
Format: cell-based
Conditions: Human TRPC6 stably-expressing cells, OAG 30 μM, FLIPR Calcium 5 Assay Kit; read-out: Inhibitory activity (pIC50 class) (converted)
Experimental: Evaluation of TRPC6 Channel Inhibitory Activity (1) (Compound Nos. 1-1293) In order to investigate TRPC6 channel inhibitory activity of the compounds, evaluation was conducted using FLIPR® Calcium 5 Assay Kit (Molecular Devices) in accordance with the following procedure. […] A volume of 12.5 μL of a compound solution was added into each well while the fluorescence was measured with FLIPR tetra. […]
Quick list: IC50 per entry.

Below, each entry is followed by its recorded IC50 result.
>>> test_value("Cn1nc(C2CC2)cc1Oc1cc(C#N)ccc1-c1cnc(NCCN)nc1")
"10 to 1000 nM"
>>> test_value("N#Cc1ccc(-c2ccc(CN)cn2)c(Oc2cnnc(C3CC3)c2)c1")
"< 10 nM"
>>> test_value("Cc1cc(Oc2cc(C#N)ccc2-c2cnc(CCN)cn2)cc(N2CCOCC2)n1")
"< 10 nM"

Exam item: Look up and state reported IC50 for Cc1nc(OCC2(C)COC2)cc(Oc2cc(C#N)ccc2-c2ncc(CCN)cn2)n1
Marked response: > 1000 nM

Exam item: Write down IC50 measured for item CC(C)COCc1cn(Cc2cc(C#N)ccc2-c2ccc(CCN)cc2)cn1
Marked response: 10 to 1000 nM

Exam item: # return recorded IC50 for entry Cc1nc(N2CCOCC2)sc1C(=O)c1cc(C#N)ccc1-c1ccc(CN)cn1
Marked response: < 10 nM

Exam item: Indicate its recorded IC50; the compound in question is Cn1nc(C2CC2)cc1Oc1cc(C#N)ccc1-c1ccc(C(O)C(C)(C)N)cn1 (centres unmarked)
Marked response: < 10 nM

Exam item: For N#Cc1ccc(-c2ncc(CCN)cn2)c(Oc2nnc(N3CCCC3)s2)c1 , write its IC50.
Marked response: 10 to 1000 nM
